Source: ChEMBL document CHEMBL1671643

Each entry below carries its recorded MIC.
- Tested on: Escherichia coli
- protocolDescription: Antimicrobial activity against Escherichia coli MC4100 harboring promoter hybrid 2 in beta-lactamase GES-1 by Etest
- Type: functional

Worked examples follow.
{"columns": ["compound", "MIC"],
 "data": [
  ["CCN1CCN(C(=O)N[C@@H](C(=O)N[C@@H]2C(=O)N3[C@@H]2SC(C)(C)[C@@H]3C(=O)O)c2ccccc2)C(=O)C1=O", "12 µg/mL"],
  ["CC(C)(O/N=C(\\C(=O)N[C@@H]1C(=O)N2C(C(=O)[O-])=C(C[n+]3ccccc3)CS[C@H]12)c1csc(N)n1)C(=O)O", "4 µg/mL"],
  ["C[C@H]1[C@H](NC(=O)/C(=N\\OC(C)(C)C(=O)O)c2csc(N)n2)C(=O)N1S(=O)(=O)O", "0.094 µg/mL"]
]}

Field request: MIC | item: CC1(C)S[C@@H]2[C@H](NC(=O)[C@H](N)c3ccc(O)cc3)C(=O)N2[C@H]1C(=O)O
> 256 µg/mL

// lookup MIC for CO/N=C(\C(=O)N[C@@H]1C(=O)N2C(C(=O)[O-])=C(C[N+]3(C)CCCC3)CS[C@H]12)c1csc(N)n1 [CEFEPIME]
0.125 µg/mL

For CO/N=C(\C(=O)N[C@@H]1C(=O)N2C(C(=O)O)=C(COC(N)=O)CS[C@H]12)c1ccco1 , what is its reported MIC?
128 µg/mL

MIC for N[C@@H](C(=O)N[C@@H]1C(=O)N2C(C(=O)O)=C(Cl)CS[C@H]12)c1ccccc1 [CEFACLOR ANHYDROUS] ?
24 µg/mL

----------
Measured MIC values are reported for all entries that follow.
- System: Escherichia coli
- protocolDescription: Antimicrobial activity against Escherichia coli MC4100 harboring weak promoter and active promoter P2 in beta-lactamase GES-1 by Etest
- Type: functional
The reply should contain only the number, in µg/mL.

{"columns": ["molecule", "targetEntity", "MIC (µg/mL)"],
 "data": [
  ["CCN1CCN(C(=O)N[C@@H](C(=O)N[C@@H]2C(=O)N3[C@@H]2SC(C)(C)[C@@H]3C(=O)O)c2ccccc2)C(=O)C1=O", "Escherichia coli", 12],
  ["CC(C)(O/N=C(\\C(=O)N[C@@H]1C(=O)N2C(C(=O)[O-])=C(C[n+]3ccccc3)CS[C@H]12)c1csc(N)n1)C(=O)O", "Escherichia coli", 4],
  ["CO/N=C(\\C(=O)N[C@@H]1C(=O)N2C(C(=O)[O-])=C(C[N+]3(C)CCCC3)CS[C@H]12)c1csc(N)n1 [CEFEPIME]", "Escherichia coli", 0.094],
  ["C[C@H]1[C@H](NC(=O)/C(=N\\OC(C)(C)C(=O)O)c2csc(N)n2)C(=O)N1S(=O)(=O)O", "Escherichia coli", 0.094],
  ["N[C@@H](C(=O)N[C@@H]1C(=O)N2C(C(=O)O)=C(Cl)CS[C@H]12)c1ccccc1 [CEFACLOR ANHYDROUS]", "Escherichia coli", 24]
]}

Which MIC is listed for CO/N=C(\C(=O)N[C@@H]1C(=O)N2C(C(=O)O)=C(COC(N)=O)CS[C@H]12)c1ccco1 ?
96
